Data origin, for the record: patent US10800791B2

# key: entry, value: IC50
target: human (hACC2) (Homo sapiens, UniProt O00763); test: In vitro ACC inhibition assay (ADP-Glo), hACC2; type: biochemical; details: Table 2a, 5 nM ACC2, 20 μM ATP, 20 μM acetyl-CoA
Sequence (O00763 whole entry): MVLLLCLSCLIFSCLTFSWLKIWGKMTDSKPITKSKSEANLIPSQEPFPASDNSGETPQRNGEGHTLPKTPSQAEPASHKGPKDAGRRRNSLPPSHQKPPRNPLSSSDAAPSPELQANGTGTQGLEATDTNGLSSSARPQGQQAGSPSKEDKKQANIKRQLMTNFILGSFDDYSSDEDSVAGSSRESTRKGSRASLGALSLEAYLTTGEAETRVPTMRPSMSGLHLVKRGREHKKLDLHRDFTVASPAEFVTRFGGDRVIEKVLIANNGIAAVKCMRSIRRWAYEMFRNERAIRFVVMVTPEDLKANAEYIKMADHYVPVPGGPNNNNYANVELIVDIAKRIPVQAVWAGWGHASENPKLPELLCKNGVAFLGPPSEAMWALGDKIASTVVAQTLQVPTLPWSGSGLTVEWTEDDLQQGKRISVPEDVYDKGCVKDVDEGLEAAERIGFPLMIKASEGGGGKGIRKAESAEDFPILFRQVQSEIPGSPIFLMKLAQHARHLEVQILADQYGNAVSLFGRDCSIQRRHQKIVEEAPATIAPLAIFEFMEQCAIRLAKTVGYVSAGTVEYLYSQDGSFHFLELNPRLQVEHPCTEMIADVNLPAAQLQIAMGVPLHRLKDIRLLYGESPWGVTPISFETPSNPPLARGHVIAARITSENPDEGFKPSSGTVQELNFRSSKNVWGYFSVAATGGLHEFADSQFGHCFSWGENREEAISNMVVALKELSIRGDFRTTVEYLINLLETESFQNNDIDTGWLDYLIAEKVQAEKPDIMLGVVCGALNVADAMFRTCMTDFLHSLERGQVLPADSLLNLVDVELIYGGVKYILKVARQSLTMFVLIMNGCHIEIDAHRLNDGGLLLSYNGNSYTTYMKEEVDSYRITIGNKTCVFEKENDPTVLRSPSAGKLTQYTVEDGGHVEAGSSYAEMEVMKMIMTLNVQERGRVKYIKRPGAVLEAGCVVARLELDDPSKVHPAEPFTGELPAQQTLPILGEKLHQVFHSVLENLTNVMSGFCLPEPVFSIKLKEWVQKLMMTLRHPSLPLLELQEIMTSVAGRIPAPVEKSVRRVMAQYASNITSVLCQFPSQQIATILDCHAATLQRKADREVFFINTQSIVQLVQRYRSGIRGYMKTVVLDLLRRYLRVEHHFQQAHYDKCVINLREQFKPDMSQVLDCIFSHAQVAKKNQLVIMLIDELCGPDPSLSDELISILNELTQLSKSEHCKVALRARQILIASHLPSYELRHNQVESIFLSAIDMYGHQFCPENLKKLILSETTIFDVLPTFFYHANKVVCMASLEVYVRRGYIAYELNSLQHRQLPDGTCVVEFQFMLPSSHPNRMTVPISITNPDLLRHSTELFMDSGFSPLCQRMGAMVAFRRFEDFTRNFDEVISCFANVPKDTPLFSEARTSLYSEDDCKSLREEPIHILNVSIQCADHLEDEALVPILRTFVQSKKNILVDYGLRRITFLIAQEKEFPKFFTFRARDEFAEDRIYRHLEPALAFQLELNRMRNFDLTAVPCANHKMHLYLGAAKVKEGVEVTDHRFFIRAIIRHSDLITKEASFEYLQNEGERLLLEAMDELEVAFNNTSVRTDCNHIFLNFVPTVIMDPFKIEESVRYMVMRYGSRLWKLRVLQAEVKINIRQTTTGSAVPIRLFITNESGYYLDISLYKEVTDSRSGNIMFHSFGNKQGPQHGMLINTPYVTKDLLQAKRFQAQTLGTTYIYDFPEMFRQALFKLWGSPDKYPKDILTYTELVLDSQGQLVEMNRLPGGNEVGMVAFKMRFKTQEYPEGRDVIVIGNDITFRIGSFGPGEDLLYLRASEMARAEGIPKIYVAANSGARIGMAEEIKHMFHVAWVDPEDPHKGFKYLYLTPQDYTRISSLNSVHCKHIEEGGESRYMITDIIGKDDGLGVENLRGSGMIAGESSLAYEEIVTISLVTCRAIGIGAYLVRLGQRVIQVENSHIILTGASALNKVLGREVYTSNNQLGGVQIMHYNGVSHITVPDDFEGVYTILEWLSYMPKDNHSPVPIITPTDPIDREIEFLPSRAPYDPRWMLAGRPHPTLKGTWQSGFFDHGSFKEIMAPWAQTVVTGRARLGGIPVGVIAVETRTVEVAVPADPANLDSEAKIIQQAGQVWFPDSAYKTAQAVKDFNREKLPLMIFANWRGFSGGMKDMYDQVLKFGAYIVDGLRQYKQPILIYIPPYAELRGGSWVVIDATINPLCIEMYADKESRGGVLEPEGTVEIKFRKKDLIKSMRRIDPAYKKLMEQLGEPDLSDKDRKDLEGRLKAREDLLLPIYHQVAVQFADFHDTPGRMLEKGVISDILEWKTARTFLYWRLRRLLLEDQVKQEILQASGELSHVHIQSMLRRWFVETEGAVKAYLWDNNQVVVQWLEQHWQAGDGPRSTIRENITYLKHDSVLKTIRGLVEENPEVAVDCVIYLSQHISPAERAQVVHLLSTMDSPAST

Recorded results for 5 compounds are shown here.
{"Compound": "COc1ccc(F)cc1[C@H](Cn1c(=O)n(C(C)(C)C(=O)NC(C)C)c(=O)c2c(C)c(-n3nccn3)sc21)OC[C@H](C)C#N", "Target entity": "human (hACC2) (Homo sapiens, UniProt O00763)", "Experimental value": "5 to 10 nM"}
{"Compound": "C=CCNC(=O)C(C)(C)n1c(=O)c2c(C)c(-n3nccn3)sc2n(C[C@H](OC(C)C)c2cc(F)ccc2OC)c1=O", "Target entity": "human (hACC2) (Homo sapiens, UniProt O00763)", "Experimental value": "5 to 10 nM"}
{"Compound": "COc1ccc(F)cc1[C@H](Cn1c(=O)n(C(C)(C)C(=O)N2CCCCC2)c(=O)c2c(C)c(-n3nccn3)sc21)OC(C)C", "Target entity": "human (hACC2) (Homo sapiens, UniProt O00763)", "Experimental value": "10 to 40 nM"}
{"Compound": "COCCO[C@@H](Cn1c(=O)n(C(C)C(=O)N2CCCC2)c(=O)c2c(C)c(-n3nccn3)sc21)c1cc(F)ccc1OC (stereo partly shown)", "Target entity": "human (hACC2) (Homo sapiens, UniProt O00763)", "Experimental value": "10 to 40 nM"}
{"Compound": "COc1ccc(F)cc1[C@H](Cn1c(=O)n([C@@H](C)C(N)=O)c(=O)c2c(C)c(-n3nccn3)sc21)OCC(C)(C)O", "Target entity": "human (hACC2) (Homo sapiens, UniProt O00763)", "Experimental value": "5 to 10 nM"}

Problem: Hello, please tell me recorded IC50 for this one: COc1ccc(F)cc1[C@H](Cn1c(=O)n(C(C)C(=O)NC(C)C)c(=O)c2c(C)c(-n3nccn3)sc21)OCCO (stereo partly shown)
Result: 5 to 10 nM

Problem: Hello, please tell me recorded IC50 for this one: COc1ccc(F)cc1[C@H](Cn1c(=O)n(C(C)(C)C(=O)N2CCCC2)c(=O)c2c(C)c(-n3nccn3)sc21)OCC(C)=O
Result: 5 to 10 nM

---

# key: entry, value: IC50
biological target: human (hACC2) (Homo sapiens, UniProt O00763); test: In vitro ACC inhibition assay (ADP-Glo), hACC2; assay type: biochemical; conditions: Table 2a, 5 nM ACC2, 20 μM ATP, 20 μM acetyl-CoA

{"Compound": "COc1ccc(F)cc1[C@H](Cn1c(=O)n([C@@H](C)C(=O)N(C)C(C)C)c(=O)c2c(C)c(-n3nccn3)sc21)OCCO", "Target entity": "human (hACC2) (Homo sapiens, UniProt O00763)", "IC50": "10 to 40 nM"}
{"Compound": "COc1ccc(F)cc1[C@H](Cn1c(=O)n([C@H](C)C(N)=O)c(=O)c2c(C)c(-n3nccn3)sc21)OCC(C)(C)O", "Target entity": "human (hACC2) (Homo sapiens, UniProt O00763)", "IC50": "10 to 40 nM"}
{"Compound": "COCCCO[C@@H](Cn1c(=O)n(C(C)(C)C(=O)N2CCCC2)c(=O)c2c(C)c(-n3nccn3)sc21)c1cc(F)ccc1OC", "Target entity": "human (hACC2) (Homo sapiens, UniProt O00763)", "IC50": "5 to 10 nM"}

Problem: Hello, please tell me recorded IC50 for this one: COCCO[C@@H](Cn1c(=O)n(C(C)(C)C(=O)NC(C)C)c(=O)c2c(C)c(-n3nccn3)sc21)c1cc(F)ccc1OC
Result: 5 to 10 nM

Problem: Hello, please tell me recorded IC50 for this one: COc1ccccc1[C@H](Cn1c(=O)n(C(C)(C)C(=O)N2CC=CC2)c(=O)c2c(C)c(-n3nccn3)sc21)OC1CCOCC1
Result: 5 to 10 nM

Problem: Hello, please tell me recorded IC50 for this one: CCc1ccc(F)cc1[C@H](Cn1c(=O)n(C(C)(C)C(=O)NC(C)C)c(=O)c2c(C)c(-n3nccn3)sc21)OCCOC
Result: 5 to 10 nM

Problem: Hello, please tell me recorded IC50 for this one: C=CCNC(=O)C(C)(C)n1c(=O)c2c(C)c(-n3nccn3)sc2n(C[C@H](OC2CCOCC2)c2cc(F)ccc2OC)c1=O
Result: 1 to 5 nM

Problem: Hello, please tell me recorded IC50 for this one: COc1ccc(F)cc1[C@H](Cn1c(=O)n(C(C)(C)C(=O)NCC#N)c(=O)c2c(C)c(-n3nccn3)sc21)OC(C)C
Result: 10 to 40 nM

Problem: Hello, please tell me recorded IC50 for this one: COCCO[C@@H](Cn1c(=O)n([C@@H](C)C(=O)NC(C)C)c(=O)c2c(C)c(-n3nccn3)sc21)c1cc(F)ccc1OC [Compound I-66]
Result: 5 to 10 nM

Problem: Hello, please tell me recorded IC50 for this one: COc1ccc(F)cc1[C@H](Cn1c(=O)n(C(C)(C)C(=O)O)c(=O)c2c(C)c(-n3nccn3)sc21)OC(C)C
Result: 5 to 10 nM

---

test system: C. krusei; assay: Antifungal Activity Assay (broth microtiter MIC), C. krusei; format: cell-based, Candida krusei; settings: Pichia kudriavzevii, ATCC6258, 48 h, read-out: MIC, C. krusei ATCC 6258, Table 3b (additional results), 3 replicates, MIC recorded at 48 h
Measured parameter: MIC

Recorded results for 2 compounds are shown here.
{"Compound smiles": "COc1ccc(F)cc1[C@H](Cn1c(=O)n(C(C)(C)C(=O)NC2CCCCC2)c(=O)c2c(C)c(-n3nccn3)sc21)OC1CCOCC1", "MIC": "0.06 to 0.249 µg/mL"}
{"Compound smiles": "CNC(=O)C(C)(C)n1c(=O)c2c(C)c(-n3nccn3)sc2n(C[C@H](OC(C)C)c2cc(F)ccc2OC)c1=O", "MIC": "0.25 to 1 µg/mL"}

Below: the item to evaluate.
Problem: Write down measured MIC (C. krusei) for this compound. Cc1c(-n2nccn2)sc2c1c(=O)n(C(C)(C)C(=O)NC(C)C)c(=O)n2C[C@H](OC(C)C)c1cc(F)ccc1CCC#N
Result: 1.01 to 2 µg/mL

---

molecular target: fungal (fACC2) (UniProt Q00955); conditions: read-out: fACC2 (in vitro ACC2 Inhibition Assay, IC50); Table 2b, additional results; ADP-Glo, 5 nM ACC2, 20 μM ATP, 20 μM acetyl-CoA
Sequence (Q00955 whole entry): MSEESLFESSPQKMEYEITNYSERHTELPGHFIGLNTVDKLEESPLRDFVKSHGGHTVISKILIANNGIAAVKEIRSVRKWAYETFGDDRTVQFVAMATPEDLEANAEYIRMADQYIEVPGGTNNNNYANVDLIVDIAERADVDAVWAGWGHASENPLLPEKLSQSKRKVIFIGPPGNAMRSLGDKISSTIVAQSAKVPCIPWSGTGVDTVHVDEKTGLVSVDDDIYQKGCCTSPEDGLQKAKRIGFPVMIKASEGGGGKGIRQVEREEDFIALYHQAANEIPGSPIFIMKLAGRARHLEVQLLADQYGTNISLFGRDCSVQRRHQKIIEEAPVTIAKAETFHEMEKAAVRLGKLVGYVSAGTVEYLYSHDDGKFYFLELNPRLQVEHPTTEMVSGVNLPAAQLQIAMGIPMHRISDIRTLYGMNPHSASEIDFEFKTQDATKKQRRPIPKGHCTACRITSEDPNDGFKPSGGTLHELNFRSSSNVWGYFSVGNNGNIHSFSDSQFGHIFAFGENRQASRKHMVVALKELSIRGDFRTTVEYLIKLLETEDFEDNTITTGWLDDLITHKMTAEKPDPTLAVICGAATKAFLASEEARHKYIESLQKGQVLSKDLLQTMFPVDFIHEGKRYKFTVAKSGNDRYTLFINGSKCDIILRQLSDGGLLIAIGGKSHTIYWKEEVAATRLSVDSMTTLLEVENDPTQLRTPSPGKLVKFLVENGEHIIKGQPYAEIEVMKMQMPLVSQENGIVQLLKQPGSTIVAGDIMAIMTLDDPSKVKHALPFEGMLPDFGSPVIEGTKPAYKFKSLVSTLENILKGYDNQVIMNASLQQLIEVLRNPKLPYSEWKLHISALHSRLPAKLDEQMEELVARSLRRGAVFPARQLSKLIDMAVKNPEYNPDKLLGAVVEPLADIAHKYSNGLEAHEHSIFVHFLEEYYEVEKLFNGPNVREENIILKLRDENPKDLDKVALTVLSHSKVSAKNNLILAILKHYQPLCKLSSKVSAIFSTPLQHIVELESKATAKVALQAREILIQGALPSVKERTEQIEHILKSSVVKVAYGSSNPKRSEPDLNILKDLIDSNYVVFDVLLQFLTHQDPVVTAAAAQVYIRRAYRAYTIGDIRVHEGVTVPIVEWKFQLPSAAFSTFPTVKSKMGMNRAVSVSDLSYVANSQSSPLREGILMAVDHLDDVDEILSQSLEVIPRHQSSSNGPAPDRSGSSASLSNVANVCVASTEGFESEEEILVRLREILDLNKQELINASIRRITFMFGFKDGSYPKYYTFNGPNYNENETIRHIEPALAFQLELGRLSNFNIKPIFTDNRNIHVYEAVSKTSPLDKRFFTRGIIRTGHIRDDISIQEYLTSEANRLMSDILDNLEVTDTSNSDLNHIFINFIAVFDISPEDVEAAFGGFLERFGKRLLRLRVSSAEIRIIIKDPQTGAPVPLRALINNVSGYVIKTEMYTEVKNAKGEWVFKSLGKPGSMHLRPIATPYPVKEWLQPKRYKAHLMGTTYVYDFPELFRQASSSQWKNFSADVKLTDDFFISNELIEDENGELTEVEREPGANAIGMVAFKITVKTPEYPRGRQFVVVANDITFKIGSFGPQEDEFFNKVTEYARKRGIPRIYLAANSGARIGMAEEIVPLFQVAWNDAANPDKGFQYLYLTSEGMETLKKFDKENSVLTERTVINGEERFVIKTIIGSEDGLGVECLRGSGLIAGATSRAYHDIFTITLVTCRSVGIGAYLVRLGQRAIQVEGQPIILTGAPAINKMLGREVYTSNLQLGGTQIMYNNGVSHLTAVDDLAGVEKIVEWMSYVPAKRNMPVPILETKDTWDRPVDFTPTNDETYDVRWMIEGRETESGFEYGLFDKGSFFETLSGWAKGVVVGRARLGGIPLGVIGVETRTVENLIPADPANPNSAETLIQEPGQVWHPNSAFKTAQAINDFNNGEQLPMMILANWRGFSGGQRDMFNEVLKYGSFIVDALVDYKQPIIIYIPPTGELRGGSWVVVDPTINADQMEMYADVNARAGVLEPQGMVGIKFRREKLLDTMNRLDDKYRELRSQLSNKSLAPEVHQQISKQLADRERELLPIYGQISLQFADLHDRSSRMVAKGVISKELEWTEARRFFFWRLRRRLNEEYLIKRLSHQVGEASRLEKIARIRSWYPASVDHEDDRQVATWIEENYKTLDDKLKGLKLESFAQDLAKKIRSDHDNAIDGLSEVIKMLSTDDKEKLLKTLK
# key: entry, value: IC50

Recorded results for 3 molecules are shown here.
{"Compound smiles": "COc1ccccc1[C@H](Cn1c(=O)n(C(C)(C)C(N)=O)c(=O)c2c(C)c(-n3nccn3)sc21)OCCC#N", "Target entity": "fungal (fACC2) (UniProt Q00955)", "IC50": "1 to 5 nM"}
{"Compound smiles": "COc1ccc(F)cc1[C@H](Cn1c(=O)n(CC(=O)NC(C)C)c(=O)c2c(C)c(-n3nccn3)sc21)OCCO", "Target entity": "fungal (fACC2) (UniProt Q00955)", "IC50": "1 to 5 nM"}
{"Compound smiles": "COc1ccc(F)cc1[C@H](Cn1c(=O)n(C(C)(C)C(=O)N2CCCC2)c(=O)c2c(C)c(-n3nccn3)sc21)OC(C)C", "Target entity": "fungal (fACC2) (UniProt Q00955)", "IC50": "1 to 5 nM"}

Problem: Write down measured IC50 (fungal (fACC2) (UniProt Q00955)) for this molecule. Cc1c(-n2nccn2)sc2c1c(=O)n(C(C)(C)C(=O)NC(C)C)c(=O)n2C[C@H](OC(C)C)c1cc(F)ccc1OCC1COC1
Result: 1 to 5 nM

Problem: Write down measured IC50 (fungal (fACC2) (UniProt Q00955)) for this molecule. COc1ccc(F)cc1[C@H](Cn1c(=O)n([C@@H](C)C(=O)N(C)C(C)C)c(=O)c2c(C)c(-n3nccn3)sc21)O[C@H]1CC[C@@H](O)CC1
Result: 0.3 to 1 nM

Problem: Write down measured IC50 (fungal (fACC2) (UniProt Q00955)) for this molecule. Cc1c(-n2nccn2)sc2c1c(=O)n(C(C)(C)C(=O)NC(C)C)c(=O)n2C[C@H](OCCO)c1cc(F)ccc1O
Result: 0.3 to 1 nM

Problem: Write down measured IC50 (fungal (fACC2) (UniProt Q00955)) for this molecule. Cc1c(-n2nccn2)sc2c1c(=O)n(C(C)(C)C(=O)NC(C)C)c(=O)n2C[C@H](OC1CCOCC1)c1cc(F)ccc1OCc1ccccc1
Result: 1 to 5 nM

Problem: Write down measured IC50 (fungal (fACC2) (UniProt Q00955)) for this molecule. COc1ccc(F)cc1[C@H](Cn1c(=O)n(C(C)(C)C(=O)NC2CCCCC2)c(=O)c2c(C)c(-n3nccn3)sc21)OC1CCOCC1
Result: 1 to 5 nM

Problem: Write down measured IC50 (fungal (fACC2) (UniProt Q00955)) for this molecule. COc1ccc(F)cc1[C@H](Cn1c(=O)n([C@H](C)C(=O)NC(C)C)c(=O)c2c(C)c(-n3nccn3)sc21)OCC(C)(C)C#N
Result: 0.3 to 1 nM

Problem: Write down measured IC50 (fungal (fACC2) (UniProt Q00955)) for this molecule. COc1ccc(F)cc1[C@H](Cn1c(=O)n([C@@H](C)C(=O)N(C)C(C)C)c(=O)c2c(C)c(-n3nccn3)sc21)OC1CCC(=O)CC1
Result: 1 to 5 nM
